- measured_on: C1-fused SRC kinases
- assay_details: split reporter (BiFC, NanoBiT); Gaussia princeps luciferase complementation assay in human HEK293T cells; Gluc2 at the N terminus of SKAP1 or SKAP2 (N2), Gluc1 at the N terminus (N1) or C terminus (C1) of the SRC kinase; 100 ng plasmid pair, PEI; luminescence read in lysate one day later; normalized luminescence ratio (NLR), given relative to wild type or to SKAP2
Record form. Attribute: wild-type normalized NLR, mean over SRC kinases. Fill in for each entry.

// below: answered binders
binder="SKAP1 Link2SH3 mutant, N2-fused (domain or fragment) SSLTIPYEEDEEEEEKEETYDDIDGFDSPSCGSQCRPTILPGSVGIKEPTEEKEEEDIYEVLPDEEHDLEEDESGTRRKGVDYASYYQGLWDCHGDQPDELSFQRGDLIRILSKEYNMYGWWVGELNSLVGIVPKEYLTTAFEVEE" result=0.51
binder="SKAP1 DomDIM mutant, N2-fused (domain or fragment) MQAAALPEEIRWLLEDAEEFLAEGLRNENLSAVARDHRDHILRGFQQIKARYYWDFQPQGGDIGQDSSDDNHSGTLGLSLTSDAPFLSDYQDEGMEDIV" result=0.32
binder="SKAP1 D120K mutant, N2-fused (natural protein) MQAAALPEEIRWLLEDAEEFLAEGLRNENLSAVARDHRDHILRGFQQIKARYYWDFQPQGGDIGQDSSDDNHSGTLGLSLTSDAPFLSDYQDEGMEDIVKGAQELDNVIKQGYLEKKSKKHSFFGSEWQKRWCVVSRGLFYYYANEKSKQPKGTFLIKGYGVRMAPHLRRDSKKESCFELTSQDRRSYEFTATSPAEARDWVDQISFLLKDLSSLTIPYEEDEEEEEKEETYDDIDGFDSPSCGSQCRPTILPGSVGIKEPTEEKEEEDIYEVLPDEEHDLEEDESGTRRKGVDYASYYQGLWDCHGDQPDELSFQRGDLIRILSKEYNMYGWWVGELNSLVGIVPKEYLTTAFEVEER" result=1.49

Request: Report wild-type normalized NLR, mean over SRC kinases for SKAP1 ΔLink1PH deletion mutant, N2-fused (natural protein) MQAAALPEEIRWLLEDAEEFLAEGLRNENLSAVARDHRDHILRGFQQIKARYYWDFQPQGGDIGQDDLSSLTIPYEEDEEEEEKEETYDDIDGFDSPSCGSQCRPTILPGSVGIKEPTEEKEEEDIYEVLPDEEHDLEEDESGTRRKGVDYASYYQGLWDCHGDQPDELSFQRGDLIRILSKEYNMYGWWVGELNSLVGIVPKEYLTTAFEVEER please.
Result: 0.96
